Where do these numbers come from? They come from PubChem BioAssay (NCI).

test system: LOX IMVI melanoma; assay: NCI tumour cell line growth inhibition, 48 h
READOUT NAME: TGI

Look over these answered cases.
MOLECULE: c1cc(-c2ccc(-c3ccsc3)s2)cs1
TGI: > 100 µM
//
MOLECULE: O=C(c1ccc(Cl)cc1)C1OC12C(=O)Nc1c(Cl)cc(Cl)cc12 (centres undefined)
TGI: > 100 µM
//
MOLECULE: COc1ccc2nc3c(c(N)c2c1)C1CCC3C1(C)C (centres undefined)
TGI: > 100 µM

Next up:
stdin: Give reported TGI value for Cn1c(=O)c2nc3sc4c(n3c2n(C)c1=O)C(=O)c1ccccc1C4=O
stdout: > 54.7 µM
